Procedure details: qHTS for Inhibitors of human tyrosyl-DNA phosphodiesterase 1 (TDP1): qHTS in cells in absence of CPT; further: nearly all actives have a fitted effect of over 55% in size
Run conditions: DT40 Tdp1-/- hTDP1 cells, no CPT, ATP luminescence, 48 h
In all, about 420,000 compounds went through this assay and about 64,000 (15%) were called active. Another 27% or so got no clear call; they are omitted. Only a sample is shown.

Compound	outcome
COc1ccc(NC(=O)c2ccc3oc(=O)c(S(=O)(=O)c4ccc(F)cc4)cc3c2)c(OC)c1	inactive
Cc1ccc(-c2cc(C(=O)N3CCc4ccccc4C3)no2)cc1	inactive
COc1ccnc(Oc2ccccc2)c1-c1ncn[nH]1	inactive

* * *

Procedure details: qHTS for Inhibitors of human tyrosyl-DNA phosphodiesterase 1 (TDP1): qHTS in cells in absence of CPT; further: nearly all actives have a fitted effect of over 55% in size
Run conditions: DT40 Tdp1-/- hTDP1 cells, no CPT, ATP luminescence, 48 h
The whole screen tested about 420,000 compounds, of which about 64,000 (15%) were called active. Inconclusive results (about 27%) are left out. The call rests on the fitted dose curve; in most records, active means well fitted inhibition curve with a large enough effect; inconclusive means small, poorly fitted or top-dose-only effect; inactive means flat fitted curve, though single readings scatter. A selection follows.
Outcome (select one): active, inactive

## Input Please let me know the test result on file for "O=C(O)c1ccc(NS(=O)(=O)c2cccc3nsnc23)cc1" .
## Output inactive

## Input Please let me know the test result on file for "Cc1cc(C)cc(NC(=O)CSc2nc3nccnc3c(=O)n2CCc2c[nH]c3ccccc23)c1" .
## Output active

## Input Please let me know the test result on file for "CC1(C)OC(=O)C2=C(C[C@@H](C3CC3)O[C@H]2c2ccc(Cl)cc2)O1" .
## Output inactive

## Input Please let me know the test result on file for "O=C(CSc1nc2nccnc2c(=O)n1Cc1cccs1)Nc1ccccc1F" .
## Output inactive

## Input Please let me know the test result on file for Cc1cc(-c2ccc(C)c(S(=O)(=O)N3c4ccccc4CC3C)c2)on1 (centres undefined) .
## Output active

## Input Please let me know the test result on file for "COC(=O)CNC(=O)c1ccccc1[N+](=O)[O-]" .
## Output inactive

## Input Please let me know the test result on file for "Cc1cc(C)c(NC(=O)CSc2nc3nccnc3c(=O)n2CCc2c[nH]c3ccccc23)c(C)c1" .
## Output inactive

## Input Please let me know the test result on file for "COc1ccc(F)cc1S(=O)(=O)N1CCCCC1" .
## Output inactive

## Input Please let me know the test result on file for "COc1ccc(C(=O)NC(=S)NNC(=O)CCc2ccccc2)cc1" .
## Output active

## Input Please let me know the test result on file for "CNC(=S)NNC(=O)c1ccc(N(C)C)cc1" .
## Output inactive

## Input Please let me know the test result on file for "O=C(NC(=S)Nc1ccc(S(=O)(=O)N2CCOCC2)cc1)c1ccccc1[N+](=O)[O-]" .
## Output inactive

## Input Please let me know the test result on file for "O=C(CSc1nc2nccnc2c(=O)n1CCc1c[nH]c2ccccc12)Nc1ccccc1F" .
## Output active

## Input Please let me know the test result on file for "CCOc1cc(NC(=O)c2ccco2)c(OCC)cc1NC(=O)COc1ccccc1" .
## Output active

## Input Please let me know the test result on file for "COc1ccc(CN2CCc3nc(Nc4ccccc4)ncc3C2)c(OC)c1OC" .
## Output active

## Input Please let me know the test result on file for "CCOC(=O)C1CCN(C(=O)C2CCN(S(=O)(=O)c3c(C)noc3C)CC2)CC1" .
## Output inactive

## Input Please let me know the test result on file for "COc1ccc(S(=O)(=O)Nc2c(C)n(C)n(-c3ccccc3)c2=O)cc1" .
## Output inactive

## Input Please let me know the test result on file for "Cn1c(CCC(=O)Nc2ccccc2F)nnc1SCC(=O)Nc1ccccc1Cl" .
## Output inactive

## Input Please let me know the test result on file for "O=C(Nc1ccc(F)cc1)C(=O)c1cn(CC(=O)N2CCOCC2)c2ccccc12" .
## Output inactive

## Input Please let me know the test result on file for "O=C(Nc1ccc(-c2csc(Nc3cccc(C(F)(F)F)c3)n2)cc1)c1cccc(C(F)(F)F)c1" .
## Output active

## Input Please let me know the test result on file for "O=C(Nc1ccon1)c1nc[nH]c1C(=O)NCc1ccccc1" .
## Output inactive

## Input Please let me know the test result on file for "CCOc1cc(NC(=S)NCc2ccco2)c(OCC)cc1NC(=O)c1ccco1" .
## Output inactive

## Input Please let me know the test result on file for "Cn1c(=O)c(CCc2ccccc2)nc2cnc(Nc3ccccc3)nc21" .
## Output inactive

## Input Please let me know the test result on file for "O=C(NNC(=O)c1ccc(Cl)nc1)c1ccc(Br)cc1" .
## Output inactive

## Input Please let me know the test result on file for "CC(=O)NC(=S)NNC(=O)c1ccc(Br)cc1" .
## Output active

## Input Please let me know the test result on file for "CC1=CC2=NC(=O)/C(=C/c3coc4ccccc4c3=O)C(=N)N2O1" .
## Output inactive

## Input Please let me know the test result on file for "Fc1ccc(N2CCN(Cc3cnc(Oc4ccc(Br)cc4)s3)CC2)cc1" .
## Output inactive

## Input Please let me know the test result on file for "O=C(CSc1nc2c(c(=O)[nH]1)CN(Cc1ccc(F)cc1)CC2)Nc1ccccc1Cl" .
## Output inactive

## Input Please let me know the test result on file for "Cc1cccc(NC(=O)c2cccc(C(F)(F)F)c2)c1" .
## Output inactive

## Input Please let me know the test result on file for "O=C(OCCOCn1cc(Br)c(=O)[nH]c1=O)c1ccccc1" .
## Output inactive

## Input Please let me know the test result on file for "Cc1oc2c(C)c3oc(=O)c(CC(=O)N[C@@H](CC(C)C)C(=O)N[C@@H](Cc4ccccc4)C(=O)O)c(C)c3cc2c1C" .
## Output inactive

## Input Please let me know the test result on file for COC(=O)C(NC(C)=O)(Nc1nc2c(s1)CCCC2)C(F)(F)F (centres undefined) .
## Output inactive

## Input Please let me know the test result on file for "O=C(COc1ccccc1)Nc1nonc1NC(=O)COc1ccccc1" .
## Output inactive

## Input Please let me know the test result on file for "Cc1cc(C)cc(NC(=O)Cn2c(=O)c3ccccc3n3nncc23)c1" .
## Output inactive

## Input Please let me know the test result on file for "Cc1ccc(C(=O)COc2cccc(NC(=O)c3ccco3)c2)cc1" .
## Output active

* * *

Procedure details: qHTS for Inhibitors of human tyrosyl-DNA phosphodiesterase 1 (TDP1): qHTS in cells in absence of CPT; further: nearly all actives have a fitted effect of over 55% in size
Run conditions: DT40 Tdp1-/- hTDP1 cells, no CPT, ATP luminescence, 48 h
Among all 420,000 compounds or so, about 64,000 (15%) were called active. Another 27% or so got no clear call; they are omitted. Calls follow the shape of the dose curve; as a rule, active = well fitted inhibition curve with a large enough effect; inconclusive = small, poorly fitted or top-dose-only effect; inactive = flat fitted curve, though single readings scatter. A selection follows.
Outcome (select one): yes (1) = active, no (0) = inactive

## Input Please let me know the test result on file for O=C(NCCN1CCCC(O)C1)c1cc(COc2c(F)cccc2F)on1 (stereo unspecified) .
## Output no (0)

## Input Please let me know the test result on file for "CCCCOc1ccc(C(=O)NCc2ccncc2)cc1" .
## Output no (0)

## Input Please let me know the test result on file for "COCCCNc1ccn2nc(-c3ccc(CC(C)C)cc3)cc2n1" .
## Output no (0)

## Input Please let me know the test result on file for "COC(=O)C[C@H]1C[C@@H]2c3cc(NC(=O)Nc4ccccc4)ccc3O[C@@H]2[C@@H](CO)O1" .
## Output no (0)

## Input Please let me know the test result on file for "COc1cc(NC(=O)N2CCOCC2)cc(OC)c1" .
## Output no (0)

## Input Please let me know the test result on file for "CCC(=O)Nc1nc(OC)cc(OC)n1" .
## Output no (0)

## Input Please let me know the test result on file for "COc1ccccc1-c1cc2nc(C)c(CCC(=O)O)c(C)n2n1" .
## Output no (0)

## Input Please let me know the test result on file for "O=C(COC(=O)c1cc(=O)[nH]c2ccccc12)NCc1cccc(Cl)c1" .
## Output no (0)

## Input Please let me know the test result on file for "O=C(ON=C1CCN(S(=O)(=O)c2ccccc2)CC1)c1ccc(Cl)cc1" .
## Output no (0)

## Input Please let me know the test result on file for "CC(=O)Nc1ccc(S(=O)(=O)Nc2ccc(N3CCCCC3)cc2)cc1" .
## Output yes (1)

## Input Please let me know the test result on file for COc1cc(NS(=O)(=O)c2ccc3c(c2)OCC(C(=O)N2CCCC2)O3)cc(OC)c1 (stereo unspecified) .
## Output yes (1)

## Input Please let me know the test result on file for CCC(C)(NC(=O)c1ccccn1)C(=O)NC1CCCCC1 (stereo unspecified) .
## Output no (0)

## Input Please let me know the test result on file for "Cc1cccc(OCC(=O)NCCCNC(=O)c2ccccn2)c1" .
## Output no (0)

## Input Please let me know the test result on file for "COc1ccccc1-c1cc2nc(NCc3cccc(Cl)c3)ccn2n1" .
## Output yes (1)

## Input Please let me know the test result on file for "CCCCn1c(N)c(N(CC(C)C)C(=O)CN(C)S(=O)(=O)c2ccc(F)cc2)c(=O)[nH]c1=O" .
## Output no (0)

## Input Please let me know the test result on file for "Cc1cc(NC(=O)Nc2ccccc2)n(-c2ccccc2)n1" .
## Output no (0)

## Input Please let me know the test result on file for CCCNC(=O)C1(C)CCCN(C(=O)c2cccc(OC(C)=O)c2C)C1 (stereo unspecified) .
## Output no (0)

## Input Please let me know the test result on file for CCCNC(=O)C1(C)CCN(Cc2ccc(Cl)c(Cl)c2)C1 (stereo unspecified) .
## Output yes (1)

## Input Please let me know the test result on file for CCCOc1ccc(C(=O)C(CCC(CNCC)C(=O)c2ccc(OCCC)cc2)CNCC)cc1 (stereo unspecified) .
## Output yes (1)

## Input Please let me know the test result on file for "CC(C)Cc1ccc(-c2cc3nc(NCc4cccc(Cl)c4)ccn3n2)cc1" .
## Output yes (1)

## Input Please let me know the test result on file for "O=C(COc1ccccc1O)NC1CCCC1" .
## Output no (0)

## Input Please let me know the test result on file for "Cn1cccc1C(=O)Nc1nccs1" .
## Output no (0)

## Input Please let me know the test result on file for "O=C(C[C@H]1C[C@H]2c3cc(NS(=O)(=O)c4ccc(F)cc4)ccc3O[C@H]2[C@H](CO)O1)NCc1cc(F)ccc1F" .
## Output yes (1)

## Input Please let me know the test result on file for "CCN(CC)CCOc1ccc2c(c1)C(=NNC(=O)c1ccccn1)c1cc(OCCN(CC)CC)ccc1-2" .
## Output yes (1)

## Input Please let me know the test result on file for CCCOc1ccc(C(=O)CCC(=O)OC(C)C(=O)Nc2ccc(NC(C)=O)cc2)cc1 (stereo unspecified) .
## Output no (0)

## Input Please let me know the test result on file for COC(C(=O)Nc1ccc(S(=O)(=O)Nc2ccc(C)c(C)c2)cc1)c1ccccc1 (stereo unspecified) .
## Output yes (1)

Numbers sourced from PubChem BioAssay AID686978.
